- method: Functional metabolic assay to measure dose dependent changes in cell viability from drug treatment in Vero E6/TMPRSS2 cells (cotreated with P-gp inhibitor, Elacridar). […] Cytotoxicity is reported via measuring absorbance and analysis of MTT/MTS assays in uninfected cells. The assay has been performed by Icahn School of Medicine at Mount Sinai.
- Assay type: toxicity, cell-based, VeroE6/TMPRSS2
- settings: chlorocebus sabaeus, veroe6/tmprss2; p-gp concentration 2 uM

{"sample smiles": "O=C(Nc1ccc2c(c1)CNC2)c1cc(Br)cc2[nH]c(-c3ccccc3)nc12", "CC10": "0.098 µM"}
{"sample smiles": "NCCCCc1ccc(NC(=O)c2cc(Cl)cc(NC(=O)OCc3ccccc3)c2)cc1", "CC10": "> 50 µM"}
{"sample smiles": "O=C(Nc1cc(Cl)cc(C(=O)Nc2cccc([C@H]3CCNC3)c2)c1)OCc1ccccc1", "CC10": "2.776 µM"}
{"sample smiles": "O=C(Nc1ccc2c(c1)CNC2)c1cc(F)cc2[nH]ncc12", "CC10": "> 50 µM"}
{"sample smiles": "O=C(NCC1CCOCC1)[C@H](Nc1ccc2c(c1)CNC2)c1cc(Cl)cc2[nH]ncc12", "CC10": "> 50 µM"}
{"sample smiles": "CCOc1cccc(-c2ccc(S(=O)(=O)Nc3cc4c(cc3C(=O)O)CCC4)cc2)c1", "CC10": "5.671 µM"}
{"sample smiles": "O=C(Nc1ccc2c(c1)CNCCC2)c1cc(Cl)cc2[nH]ncc12", "CC10": "< 0.023 µM"}
{"sample smiles": "CC[C@H](Cc1nnn[nH]1)c1ccc(NC(=O)[C@H]2[C@H]3CCCCC[C@H]3[C@H]2NC(=O)OCc2ccccc2)cc1", "CC10": "> 50 µM"}
{"sample smiles": "C=CC[C@H](Nc1cccc(-c2nn[nH]n2)c1)c1cc(Cl)cc2[nH]ncc12", "CC10": "> 5 µM"}
{"sample smiles": "O=C(Nc1cc(Cl)cc(N[C@H](C#CCO)c2ccc(-c3nn[nH]n3)cc2)c1)OCc1ccccc1", "CC10": "> 50 µM"}
{"sample smiles": "O=C(NCc1ccc(F)cc1)[C@H](Nc1ccc2c(c1)CNC2)c1cc(Cl)cc2[nH]ncc12", "CC10": "> 50 µM"}
{"sample smiles": "CCOC(=O)[C@H]1[C@H](c2cc(Cl)cc(NC(=O)OCc3ccccc3)c2)[C@H]1c1cccc(-c2nnn[nH]2)c1", "CC10": "> 50 µM"}
{"sample smiles": "c1cc(C2CCN(Cc3c[nH]c4ccccc34)CC2)c2ccncc2c1", "CC10": "> 50 µM"}
{"sample smiles": "CC(C)NC(=O)[C@H](Nc1ccc2c(c1)CNC2)c1cc(Cl)cc2[nH]ncc12", "CC10": "> 50 µM"}
{"sample smiles": "CCc1cc(C(=O)Nc2cccc(-c3nnn[nH]3)c2)sc1-c1ccc(Cl)cc1", "CC10": "> 50 µM"}
{"sample smiles": "CC(C)Cc1nc2c(C(=O)Nc3ccc4c(c3)CNC4)cc(Br)cc2[nH]1", "CC10": "0.569 µM"}
{"sample smiles": "CC(C)(C)NC(=O)[C@H](Nc1cccc(-c2nn[nH]n2)c1)c1cc(Cl)cc(NC(=O)OCc2ccccc2)c1", "CC10": "> 50 µM"}
{"sample smiles": "Cc1cc(-c2ccc([C@@H](NC(=O)OCc3ccccc3)C(=O)Nc3cccc(CN)c3)cc2)cs1", "CC10": "0.089 µM"}
{"sample smiles": "O=C(Nc1cc(Cl)cc([C@H]2CN(Cc3ccccc3)C[C@@H]2c2cccc(-c3nn[nH]n3)c2)c1)OCc1ccccc1", "CC10": "34.224 µM"}
{"sample smiles": "O=C(Nc1ccc2c(c1)CNC2)c1cc(Br)cc2[nH]ncc12", "CC10": "> 50 µM"}
{"sample smiles": "CC[C@H](Cc1nn[nH]n1)c1ccc(N[C@H](C(=O)NC)c2cc(Cl)cc(NC(=O)OCc3ccccc3)c2)cc1", "CC10": "> 50 µM"}
{"sample smiles": "Nc1cc(Cl)cc(C(=O)Nc2ccc3c(c2)CNC3)c1N", "CC10": "< 0.023 µM"}
{"sample smiles": "O=C(NC[C@H]1CCCO1)[C@H](Nc1ccc2c(c1)CNC2)c1cc(Cl)cc2[nH]ncc12", "CC10": "> 50 µM"}
